- Test system: HCC 2998
- Procedure text: NCI tumour cell line growth inhibition, 48 h
Calls of active or inactive are those of the source. Rule as the data show it: active = GI50 up to about 1.1 µM and inactive = higher.
For each of the compounds below, state its GI50.

Solved cases below.
CC1CCC(=O)C(C(=O)CC2CC(=O)NC(=O)C2)C1 (stereo unspecified)
> 100 µM (inactive)
CCC(=O)C1(c2ccccc2)CCN(C)CC1
> 100 µM (inactive)
CC1(C(=O)O)CCC[C@@]2(C)C1CC[C@@]1(C)c3cocc3CCC21 (stereo partly specified)
> 100 µM (inactive)
Cn1c(NN)nc(-c2ccc([N+](=O)[O-])cc2)c(C#N)c1=O
13.7 µM (inactive)
COc1c(O)c(O)cc2c1-c1ccc(OC)c(=O)cc1C(NC(C)=O)CC2 (stereo unspecified)
5.38 µM (inactive)
COc1ccc(/C=C2\C(=O)NC(=O)c3ccccc32)cc1OC
> 46.6 µM (inactive)

Batch of 5 compounds: report GI50 for each.
1. COc1ccc(N2C(=O)C3c4[nH]c5ccccc5c4C4CCCCCCCCCC4C3C2=O)cc1 (stereo unspecified)
2. O=C(c1ccccc1)N1OCCC1Nc1ccc(Br)cc1 (stereo unspecified)
3. O=c1[nH]nc(-c2ccccc2)c(-c2ccccc2)c1-n1nc(-c2ccccc2)c2ccccc2c1=O
4. O=C1C(Cl)=C(N2CCC[C@@H]2CO)C(=O)c2c(O)ccc(O)c21
5. N/C(=N\c1ccccc1)c1ccccc1N

["> 10 µM (inactive)", "3.85 µM (inactive)", "> 100 µM (inactive)", "2.02 µM (inactive)", "> 100 µM (inactive)"]

----------
- Test system: XF498
- Procedure text: NCI tumour cell line growth inhibition, 48 h
Activity calls are given as the source filed them. No stated cut-off is given here; in the data, active = GI50 up to about 1.1 µM and inactive = higher.
Pick one: y = active, n = inactive

Here's what some known entries look like.
CCCNC1=C(C(=O)OCC)C(=O)CO1
n
O=C(C(O)c1cn(Cc2ccccc2)c2ccccc12)N1CCCCC1 (centres undefined)
n
CCCCCCCCCC1CC(=O)OC23CCCC(=O)C12O3 (centres undefined)
n
Cc1ccc(C(=O)C(C)N)cc1C (centres undefined)
n
O=c1c2cc(O)ccc2n2nnc3ccc(NCCNCCO)c1c32
n
CC1=C2C(=O)C(C)(C)C=C2C(=O)[C@](C)(O)C12CC2 [DEHYDROILLUDIN M]
y
CC1/C=C/[C@@]2(C)CCC(C(C)(C)O)C2C(O)C[C@](C)(O)/C=C/C1 (some centres undefined)
n
N=C(N)SCc1cccc([N+](=O)[O-])c1
n

Here is another compound to look at.
Please let me know the test result on file for CCCCCCCCCCCCCCCCCCOCC(O)CO (centres undefined) .
n

----------
- System: HOP-92
- Procedure text: NCI tumour cell line growth inhibition, 48 h
Active and inactive are the calls of the source. No stated cut-off is given here; in the data, active = GI50 up to about 1.1 µM and inactive = higher.
For each of the compounds below, state its GI50.

NC1=NCCN1CC(=O)O
> 1000 µM (inactive)

Batch of 3 compounds: report GI50 for each.
1. Cc1cc(C)n(-c2nsc3ccccc23)n1
2. CNC(N)NC
3. COc1ccc2oc(-c3ccc(OC)c(OC)c3OC)cc(=O)c2c1

["80.5 µM (inactive)", "> 100 µM (inactive)", "50.6 µM (inactive)"]

Batch of 8 compounds: report GI50 for each.
1. COc1cc(/C=C2/C[C@H]3[C@@H]4CC=C5C[C@@H](O)CC[C@]5(C)[C@H]4CC[C@]3(C)NC2=O)cc(OC)c1OC
2. CC1(C)[C@@H](Cn2cc(I)c(=O)[nH]c2=O)CC[C@@]1(C)CO
3. CC(NC(=O)OC(C)(C)C)C(=O)C(N)=O (stereo not drawn)
4. C(#C[C@@]12CCC[C@@H]1NCO2)c1ccc2c(c1)OCO2
5. Cc1ccc2nc3c(Cl)c(C)c(=O)cc-3sc2c1
6. CN1CCC23c4ccccc4NC1C21CCN(C)C3Nc2ccccc21
7. CCNCC(=O)O[C@]1(CC)C(=O)OCc2c1cc1n(c2=O)Cc2cc3ccccc3nc2-1
8. Cc1ccccc1/N=N/C(C(=O)c1ccccc1)C(=O)c1ccccc1

["3.69 µM (inactive)", "> 100 µM (inactive)", "> 100 µM (inactive)", "35 µM (inactive)", "64 µM (inactive)", "94.6 µM (inactive)", "1.16 µM (inactive)", "17.9 µM (inactive)"]

Lab note: need GI50 with HOP-92 for entry N/C(=N\c1ccccc1)c1ccccc1N , please look it up.
2.51 µM (inactive)

----------
For each of the compounds below, state its GI50.
- System: SNB-19
- Procedure text: NCI tumour cell line growth inhibition, 48 h
The source made the active and inactive calls. Rule as the data show it: active = GI50 up to about 1.1 µM and inactive = higher.

Cc1cc2c(C(C)C)c(O)c(O)c(C=O)c2c(O)c1-c1c(C)cc2c(C(C)C)c(O)c(O)c(C=O)c2c1O
7.24 µM (inactive)
CC(NC(=O)OC(C)(C)C)C(=O)C(N)=O (stereo not given)
> 100 µM (inactive)

Batch of 3 compounds: report GI50 for each.
1. COc1cc(-c2cc(=O)c3cc4c(=O)cc(-c5cc(OC)c(OC)c(OC)c5)oc4cc3o2)cc(OC)c1OC
2. COc1cc(/C=N\NC(=O)C[N+](C)(C)C)cc(OC)c1OC
3. CCCc1nc(Cl)nc(Cl)c1Cl

1. 16.4 µM (inactive)
2. > 10 µM (inactive)
3. 1.16 µM (inactive)

----------
Parameter 'readout' = GI50; parameter 'system' = HCT-15.

COC(=O)c1cccc(C)c1C1CN=NC12Cc1cc(C)cc(C)c1C2=O (stereo not given)
51.1 µM
CC1(C)[C@@H](Cn2cc(I)c(=O)[nH]c2=O)CC[C@@]1(C)CO
> 100 µM
COc1cc2c(cc1OC)C(O)[C@H](Br)C(C)(C)O2 (stereo not given in full)
> 100 µM

Batch of 3 molecules: report GI50 for each.
1. O=c1c2cc([N+](=O)[O-])cnc2sn1-c1ccc(Oc2ccccc2)cc1
2. CCN(CC)C(=O)CCNC(C)Cc1c[nH]c2ccccc12 (stereo not given)
3. NNC(=O)c1c(Cl)c(Cl)c(Cl)c(Cl)c1-c1nc2ccccc2[nH]1

["> 100 µM", "> 100 µM", "5.07 µM"]

Batch of 2 molecules: report GI50 for each.
1. NC1=NCCN1CC(=O)O
2. O=C(NC(=O)c1cn(CCN2CCNCC2)c(=O)[nH]c1=O)OCc1ccccc1

["> 1000 µM", "> 100 µM"]

Batch of 2 molecules: report GI50 for each.
1. Cc1ccccc1NC(=O)c1c(C)oc2c1C(=O)c1ccccc1C2=O
2. Cc1ccc([N+](=O)[O-])cc1S(=O)(=O)Nc1ccc(C2=NN(S(=O)(=O)c3cc([N+](=O)[O-])ccc3C)C(c3ccccc3O)C2)cc1 (stereo not given)

1: 32.1 µM; 2: > 100 µM

----------
- Tested on: PC-3
- Procedure text: NCI tumour cell line growth inhibition, 48 h
Calls of active or inactive are those of the source. Rule as the data show it: active = GI50 up to about 1.1 µM and inactive = higher.
Assay metric: GI50

Solved cases below.
O=S(=O)(c1ccccc1)C1CN(Cc2ccccc2)CCN(Cc2ccccc2)C1
8.71 µM (inactive)
C[C@H](NC(=O)C(C)(Cc1ccc(O)cn1)NC(=O)c1ccccc1)c1ccccc1 (stereo partly specified)
> 100 µM (inactive)
O=C(O)c1c2c(cc3c1CC1(Cc4ccccc4C1)C3)CCC2
> 100 µM (inactive)
COc1ccc(C2=NOC(N)(c3ccc(OC)cc3)C2)cc1 (stereo unspecified)
> 100 µM (inactive)
O=C(CCSC1=NCCCN1)c1ccc(F)cc1
14.9 µM (inactive)

Let's switch to this compound now.
Request the reported GI50 associated with COc1ccc(/C=C2\C(=O)NC(=O)c3ccccc32)cc1OC
45.2 µM (inactive)

----------
- Tested on: SF-539
- Procedure text: NCI tumour cell line growth inhibition, 48 h
The source made the active and inactive calls. Rule as the data show it: active = GI50 up to about 1.1 µM and inactive = higher.
Pick one: active, inactive

COc1cc(-c2oc3c(OC)c(O)c(OC)c(O)c3c(=O)c2OC)ccc1O
inactive
COC(=O)C(CCCCN)NC(=O)C(CCCCN)NC(C)=O.Cc1ccc(C(=O)Nc2ccc(S(=O)(=O)O)c3cc(S(=O)(=O)O)cc(S(=O)(=O)O)c23)cc1NC(=O)c1cccc(NC(=O)Nc2cccc(C(=O)Nc3cc(C(=O)Nc4ccc(S(=O)(=O)O)c5cc(S(=O)(=O)O)cc(S(=O)(=O)O)c45)ccc3C)c2)c1
inactive
O=C1NC(=O)C2(CCC(O)C2)c2cc[n+]([O-])cc21 (centres undefined)
inactive
CC(NC(=O)C(CC(=O)OCc1ccccc1)NC(=O)OCc1ccccc1)c1ccccc1 (centres undefined)
inactive
CCN(CC)/N=C\c1c2ccccc2cc2ccccc12
inactive

Please let me know the test result on file for CC(C)(C)C1CCC(CI)(N=[N+]=[N-])CC1 (centres undefined) .
inactive

Request: O=C(CCSC1=NCCCN1)c1ccc(F)cc1
inactive

Request: O=C1CSC(c2cccc(Cl)c2)N1c1ccc(-n2c(-c3ccccc3)nc3ccccc3c2=O)cc1 (centres undefined)
inactive

Request: C=C1CC2(CCOc3ccc(Cl)cc32)OC1=O (centres undefined)
active

Request: COc1cc(/C=C2/C[C@H]3[C@@H]4CC=C5C[C@@H](O)CC[C@]5(C)[C@H]4CC[C@]3(C)NC2=O)cc(OC)c1OC
inactive

Request: NC(=O)c1cccc([N+](=O)[O-])c1
inactive

Request: O=C(c1ccccc1)N1OCCC1Nc1ccc(Br)cc1 (centres undefined)
inactive

Request: COc1cc(-c2cc(=O)c3cc4c(=O)cc(-c5cc(OC)c(OC)c(OC)c5)oc4cc3o2)cc(OC)c1OC
inactive

Request: Cc1cc2c(cc1Cl)SC(NNC(=O)c1ccccc1)=NS2(=O)=O
inactive

Request: C=C1c2nc3ccccc3n2C=C(c2ccc(C)cc2)N1c1ccccc1
inactive

Request: N#CC(C#N)=C1c2ccccc2C(=NN)c2ccccc21
inactive

Request: CCCc1nc(Cl)nc(Cl)c1Cl
inactive

Request: Cc1ccc(C(=O)C(C)N)cc1C (centres undefined)
inactive

Request: O=C1C2C(C(=O)N1c1ccccc1)C1(Br)c3ccccc3C2(Br)C2C(=O)N(c3ccccc3)C(=O)C21 (centres undefined)
inactive

Request: COc1cc(/C=N\NC(=O)C[N+](C)(C)C)cc(OC)c1OC
inactive

Request: CC12CP(=O)(O)CC1C2(Cl)Cl (centres undefined)
inactive
